Consider the following molecules and their measured % of Nitrone Remaining at 30 min (Human) readings.
Test: Microsomal stability in human liver microsomes
Format: in vitro ADME
Details: NADPH, 37° C.
Provide the reading as a plain figure in %.

>>> df
                         chemical_structure  data_value
0  CC(C)(C)/[N+]([O-])=C/c1ccccc1S(=O)(=O)NCc1ccccc1           0
1  CN(c1ccccc1)S(=O)(=O)c1ccc(/C=[N+](\[O-])Cc2ccccc2)cc1          14
2  CC(C)(C)/[N+]([O-])=C/c1ccc(S(C)(=O)=O)cc1S(C)(=O)=O          99
3  CC(C)(C)/[N+]([O-])=C/c1ccc(S(C)(=O)=O)nc1        94.5
4  CC(C)(C)/[N+]([O-])=C/c1cc2ccccc2nc1S(C)(=O)=O        75.7
5  CC(C)(C)NS(=O)(=O)c1ccc(/C=[N+](\[O-])C(C)(C)C)cc1         100

Ask: Query: % of Nitrone Remaining at 30 min (Human); subject: O=S(=O)(c1ccccc1/C=[N+](\[O-])C1CCCCC1)N1CCCc2ccccc21
Reply: 0

Ask: Query: % of Nitrone Remaining at 30 min (Human); subject: O=S(=O)(c1ccccc1/C=[N+](\[O-])Cc1ccccc1)N1CCOCC1
Reply: 65.4

###

Assay: Plasma protein binding (equilibrium dialysis), human plasma
Assay type: in vitro ADME
Details: 1 μg/mL in plasma, dialysis vs phosphate buffer pH 7.4 overnight at 37° C., read-out: Plasma Protein Binding % Bound Human (converted)
quantity_name: fraction unbound at 1 μg/mL

Record excerpt, results attached:
                         chemical_structure  data_value
0  CC(C)(C)/[N+]([O-])=C/c1ccc(S(=O)(=O)C2CCCC2)cc1       0.544
1  CC(C)(C)/[N+]([O-])=C/c1ccc(S(N)(=O)=O)cc1           1

Ask: Query: fraction unbound at 1 μg/mL; subject: CCS(=O)(=O)c1ccc(/C=[N+](\[O-])C(C)(C)C)c(S(=O)(=O)CC)c1
Reply: 0.697

Ask: Query: fraction unbound at 1 μg/mL; subject: CC(C)S(=O)(=O)c1ccc(/C=[N+](\[O-])C(C)(C)C)cc1
Reply: 0.796

Ask: Query: fraction unbound at 1 μg/mL; subject: CC(C)(C)/[N+]([O-])=C/c1ccc(S(=O)(=O)N2CCOCC2)cc1
Reply: 0.8

Ask: Query: fraction unbound at 1 μg/mL; subject: CCS(=O)(=O)c1ccccc1/C=[N+](\[O-])C(C)(C)C
Reply: 0.781

Ask: Query: fraction unbound at 1 μg/mL; subject: CCS(=O)(=O)c1ccc(/C=[N+](\[O-])C(C)(C)C)cc1
Reply: 0.864

Ask: Query: fraction unbound at 1 μg/mL; subject: CC(C)(C)/[N+]([O-])=C/c1ccc(C(F)(F)F)cc1S(C)(=O)=O
Reply: 0.367

Ask: Query: fraction unbound at 1 μg/mL; subject: CC(C)(C)/[N+]([O-])=C/c1ccc(S(C)(=O)=O)cc1S(C)(=O)=O
Reply: 0.867

Ask: Query: fraction unbound at 1 μg/mL; subject: CC(C)(C)/[N+]([O-])=C/c1ccc(S(=O)(=O)Nc2cccnc2)cc1
Reply: 0.238

Ask: Query: fraction unbound at 1 μg/mL; subject: CC(C)S(=O)(=O)c1ccccc1/C=[N+](\[O-])C(C)(C)C
Reply: 0.532

Ask: Query: fraction unbound at 1 μg/mL; subject: CC(C)(C)/[N+]([O-])=C/c1ccc(S(C)(=O)=O)cc1
Reply: 0.826

Ask: Query: fraction unbound at 1 μg/mL; subject: CC(C)(C)/[N+]([O-])=C/c1ccccc1S(C)(=O)=O
Reply: 0.726

###

Assay: Plasma protein binding (equilibrium dialysis), rat plasma
Assay type: in vitro ADME
Details: 1 μg/mL in plasma, dialysis vs phosphate buffer pH 7.4 overnight at 37° C., read-out: Plasma Protein Binding % Bound Rat (converted)
Description: Nitrone compounds of this invention were individually dissolved in DMSO to make a stock solution of 1 mg/mL. The compound was spiked into plasma to achieve a final concentration of 1 μg/mL. Spiked plasma and phosphate buffer (0.1M, pH 7.4), 200 μl each, were added to the opposite sides of the membrane in a 96-well equilibrium dialyzer. […] The samples were analyzed using a LC/MS/MS method. The percentage of free and bound nitrone compound were calculated according to the following formula: […]
Please use the following fraction unbound at 1 μg/mL ranges when assigning a class: low = under 0.7, mid = from 0.7 up to 0.8, high = 0.8 and over

Example entries and their recorded answers appear below.
>>> df
                         chemical_structure  label_class
0  CC(C)(C)/[N+]([O-])=C/c1ccc(S(=O)(=O)C2CCCC2)cc1          low
1  CC(C)(C)/[N+]([O-])=C/c1ccc(S(=O)(=O)Nc2cccnc2)cc1          low
2  CC(C)(C)/[N+]([O-])=C/c1ccc(S(C)(=O)=O)cc1S(C)(=O)=O          mid
3  CC(C)(C)/[N+]([O-])=C/c1ccc(C(F)(F)F)cc1S(C)(=O)=O          low
4  CC(C)(C)/[N+]([O-])=C/c1ccc(S(C)(=O)=O)cc1         high

Ask: Which of the defined bands does the recorded fraction unbound at 1 μg/mL of CC(C)(C)/[N+]([O-])=C/c1ccccc1S(C)(=O)=O sit within?
Reply: high

Ask: Which of the defined bands does the recorded fraction unbound at 1 μg/mL of CC(C)(C)/[N+]([O-])=C/c1ccc(S(N)(=O)=O)cc1 sit within?
Reply: high

Ask: Which of the defined bands does the recorded fraction unbound at 1 μg/mL of CC(C)S(=O)(=O)c1ccccc1/C=[N+](\[O-])C(C)(C)C sit within?
Reply: mid

###

Assay: Brain penetration after single oral dose in rats
Assay type: in vivo
Details: Sprague-Dawley, brain and plasma; rat; single oral dose (compound 26 5 mg/kg, 62 15 mg/kg, 20, 63 and 66 50 mg/kg); at or near Tmax; 1 g brain assumed 1 mL; read-out: Brain/Plasma (%)
quantity_name: Kp
Lab note: record just the number, no unit beside it.

Record excerpt, results attached:
In [3]: df
Out[3]:
                         chemical_structure  data_value
0  CC(C)(C)/[N+]([O-])=C/c1ccc(S(N)(=O)=O)cc1       0.229
1  CC(C)(C)/[N+]([O-])=C/c1ccc(S(C)(=O)=O)cc1S(C)(=O)=O       0.189
2  CC(C)(C)/[N+]([O-])=C/c1ccc(S(=O)(=O)Nc2cccnc2)cc1      0.0056

Ask: Query: Kp; subject: CC(C)(C)/[N+]([O-])=C/c1ccccc1S(C)(=O)=O
Reply: 0.224

Ask: Query: Kp; subject: CC(C)(C)/[N+]([O-])=C/c1ccc(S(C)(=O)=O)cc1
Reply: 0.625

###

Assay: Pharmacokinetic evaluation following intravenous and oral administration in rats
Assay type: in vivo
Details: male, Sprague-Dawley, rat, plasma, intravenous, 1 mg/kg; read-out: T1/2 elimination half life (converted)
Assign Satisfied whenever half-life does not fall below 60 min; assign Not satisfied whenever it does.

Example entries and their recorded answers appear below.
>>> df
                         chemical_structure    label_class
0  CC(C)(C)/[N+]([O-])=C/c1ccc(S(C)(=O)=O)cc1      Satisfied
1  CC(C)(C)/[N+]([O-])=C/c1ccc(S(N)(=O)=O)cc1      Satisfied
2  CC(C)(C)NS(=O)(=O)c1ccccc1/C=[N+](\[O-])C(C)(C)C  Not satisfied

# evaluate next
Ask: Please indicate if the recorded half-life for CC(C)(C)/[N+]([O-])=C/c1cc2ccccc2nc1S(C)(=O)=O meets or exceeds 60 min.
Reply: Not satisfied

###

Assay: Pharmacokinetic evaluation following intravenous and oral administration in rats
Type: in vivo
Conditions: male, Sprague-Dawley, rat, plasma, intravenous, 1 mg/kg; read-out: T1/2 elimination half life (converted)
quantity_name: half-life (min)
Provide the reading as a plain figure in min.

Record excerpt, results attached:
In [3]: df
Out[3]:
                         chemical_structure  data_value
0  CC(C)(C)/[N+]([O-])=C/c1cccnc1S(C)(=O)=O         166
1  CN(c1ccccc1)S(=O)(=O)c1ccc(/C=[N+](\[O-])C(C)(C)C)cc1        61.8
2  CC(C)(C)NS(=O)(=O)c1ccc(/C=[N+](\[O-])C2CCCCC2)cc1        30.6

Proceeding to the next compound to report its half-life.
Ask: Query: half-life; subject: CCS(=O)(=O)c1ccc(/C=[N+](\[O-])C(C)(C)C)c(S(=O)(=O)CC)c1
Reply: 33
